Sourced from patent US20250195536A1

- target_of_assay: KRAS G12D (Homo sapiens, UniProt P01116, G12D)
- Sequence (P01116 1-188 isoform P01116-2 G12D): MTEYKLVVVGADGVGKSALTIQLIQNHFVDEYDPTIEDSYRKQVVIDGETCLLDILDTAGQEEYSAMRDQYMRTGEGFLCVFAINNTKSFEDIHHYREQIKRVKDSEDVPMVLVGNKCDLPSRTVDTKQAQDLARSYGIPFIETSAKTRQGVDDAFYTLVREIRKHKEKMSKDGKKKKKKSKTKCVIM
- procedure_summary: GDP-GTP exchange assay (KRAS G12D);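 also: one dagger IC50 up to 100 nM and two daggers above 100 nM up to 1 μM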
- Format: biochemical
- test_settings: bodipy-GDP/GppNHp exchange with SOS1; 4 h pre-incubation, 2 h reaction
endpoint_name: G12D_exchange (KRAS_G12D exchange assay IC50)

compound	recorded_value
Cc1nc2c(F)c(-c3cccc(Cl)c3Cl)c(CCC#N)cc2c2c1cc([C@H]1[C@H]3C[C@H](CN(c4cn(C)nc4C(F)(F)F)C3)N1C(=O)C1CC1)n2[C@H]1[C@H]2CN[C@@H]1C2 (atropisomer, axis not shown; (Ra))	†
Cc1nc2c(F)c(-c3cccc(Cl)c3Cl)c(CCC#N)cc2c2c1cc([C@H]1[C@H]3C[C@H](CN(c4ccnc(C(F)F)c4)C3)N1C(=O)C1CC1)n2[C@H]1[C@H]2CN[C@@H]1C2 (atropisomer, axis not shown; (Ra))	†
Cc1nc2c(F)c(-c3cccc(Cl)c3Cl)c(CCC#N)cc2c2c1cc([C@H]1[C@H]3C[C@H](CN(c4cc(C)n(C)n4)C3)N1C(=O)C1CC1)n2[C@H]1[C@H]2CN[C@@H]1C2 (atropisomer, axis not shown; (Ra))	†
Cc1nc2c(F)c(-c3cccc(Cl)c3Cl)c(CCC#N)cc2c2c1cc([C@H]1[C@H]3C[C@H](CN(c4ccnc(C(C)(C)O)c4)C3)N1C(=O)C1CC1)n2[C@H]1[C@H]2CN[C@@H]1C2 (atropisomer, axis not shown; (Ra))	†

---

- target_of_assay: KRAS G12D (Homo sapiens, UniProt P01116, G12D)
- procedure_summary: GDP-GTP exchange assay (KRAS G12D);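 also: one dagger IC50 up to 100 nM and two daggers above 100 nM up to 1 μM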
- Format: biochemical
- test_settings: bodipy-GDP/GppNHp exchange with SOS1; 4 h pre-incubation, 2 h reaction
- Description: The inhibitor potency of the exemplified compounds was determined in a fluorescence based guanine nucleotide exchange assay, which measures the exchange of bodipy-GDP (fluorescently labeled GDP) for GppNHp (Non-hydrolyzable GTP analog) to generate the active state of KRAS in the presence of SOS1 (guanine nucleotide exchange factor). […] Fluorescence intensities were measured on a PheraStar plate reader instrument (BMG Labtech) with excitation at 485 nm and emission at 520 nm. […]
endpoint_name: G12D_exchange (KRAS_G12D exchange assay IC50)

molecule	target_of_assay	recorded_value
Cc1nc2c(F)c(-c3cccc(Cl)c3Cl)c(CCC#N)cc2c2c1cc(C1C3CC(CN(C4CCCCC4)C3=O)N1C(=O)C1CC1)n2C1C2CNC1C2 (atropisomer, axis not shown; (Ra)) [Example 113]	KRAS G12D (Homo sapiens, UniProt P01116, G12D)	†††
Cc1nc2c(F)c(-c3cccc(Cl)c3Cl)c(CCC#N)cc2c2c1cc([C@H]1[C@H]3C[C@H](CN(c4ccn5nccc5c4)C3)N1C(=O)C1CC1)n2[C@H]1[C@H]2CN[C@@H]1C2 (atropisomer, axis not shown; (Ra)) [Example 71]	KRAS G12D (Homo sapiens, UniProt P01116, G12D)	†
Cc1nc2c(F)c(-c3cccc(Cl)c3Cl)c(CCC#N)cc2c2c1cc([C@H]1[C@H]3C[C@H](CN(c4nccc(C(F)(F)F)n4)C3)N1C(=O)C1CC1)n2[C@H]1[C@H]2CN[C@@H]1C2 (atropisomer, axis not shown; (Ra)) [Example 43]	KRAS G12D (Homo sapiens, UniProt P01116, G12D)	†
Cc1nc2c(F)c(-c3cccc(Cl)c3Cl)c(CCC#N)cc2c2c1cc([C@H]1[C@H]3C[C@H](CN(c4cccc(F)c4)C3)N1C(=O)C1CC1)n2[C@H]1[C@H]2CN[C@@H]1C2 (atropisomer, axis not shown; (Ra)) [Example 13]	KRAS G12D (Homo sapiens, UniProt P01116, G12D)	†

---

- target_of_assay: KRAS G12D (Homo sapiens, UniProt P01116, G12D)
- procedure_summary: GDP-GTP exchange assay (KRAS G12D);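 also: one dagger IC50 up to 100 nM and two daggers above 100 nM up to 1 μM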
- Format: biochemical
- test_settings: bodipy-GDP/GppNHp exchange with SOS1; 4 h pre-incubation, 2 h reaction
endpoint_name: G12D_exchange (KRAS_G12D exchange assay IC50)

compound	recorded_value
Cc1nc2c(F)c(-c3cccc(Cl)c3Cl)c(CCC#N)cc2c2c1cc([C@H]1[C@H]3C[C@H](CN(c4ccnc(C(=O)N(C)C)c4)C3)N1C(=O)C1CC1)n2[C@H]1[C@H]2CN[C@@H]1C2 [Example 64]	†
Cc1nc2c(F)c(-c3cccc(Cl)c3Cl)c(CCC#N)cc2c2c1cc([C@H]1[C@H]3C[C@H](CN(c4ccccc4F)C3)N1C(=O)C1CC1)n2[C@H]1[C@H]2CN[C@@H]1C2 (atropisomer, axis not shown; (Ra)) [Example 2]	†
Cc1nc2c(F)c(-c3cccc(Cl)c3Cl)c(CCC#N)cc2c2c1cc([C@H]1[C@H]3C[C@H](CN(C(=O)C4CC4)C3)N1C(=O)C1CC1)n2[C@H]1[C@H]2CN[C@@H]1C2 (atropisomer, axis not shown; (Ra)) [Example 107]	†
Cc1cc(N2C[C@@H]3C[C@H](C2)N(C(=O)C2CC2)[C@H]3c2cc3c(C)nc4c(F)c(-c5cccc(Cl)c5Cl)c(CCC#N)cc4c3n2[C@H]2[C@H]3CN[C@@H]2C3)cc(=O)o1 (atropisomer, axis not shown; (Ra)) [Example 80]	†

---

- target_of_assay: KRAS G12V (Homo sapiens, UniProt P01116, G12V)
- Sequence (P01116 1-188 isoform P01116-2 G12V): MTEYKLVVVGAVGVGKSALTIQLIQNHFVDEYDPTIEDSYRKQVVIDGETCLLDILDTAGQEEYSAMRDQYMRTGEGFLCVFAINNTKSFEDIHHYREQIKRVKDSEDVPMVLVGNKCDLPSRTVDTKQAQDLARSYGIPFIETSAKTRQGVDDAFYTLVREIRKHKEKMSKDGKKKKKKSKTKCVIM
- procedure_summary: GDP-GTP exchange assay (KRAS G12V);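 also: one dagger IC50 up to 100 nM and two daggers above 100 nM up to 1 μM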
- Assay type: biochemical
- test_settings: bodipy-GDP/GppNHp exchange with SOS1; 3 h incubation after GppNHp-SOS1
endpoint_name: G12V_exchange (KRAS_G12V exchange assay IC50)

molecule	recorded_value
Cc1sc(N2C[C@@H]3C[C@H](C2)N(C(=O)C2CC2)[C@H]3c2cc3c(C)nc4c(F)c(-c5cccc(Cl)c5Cl)c(CCC#N)cc4c3n2[C@H]2[C@H]3CN[C@@H]2C3)nc1C(C)(F)F (atropisomer, axis not shown; (Ra)) [Example 103]	†
Cc1nc2c(F)c(-c3cccc(Cl)c3Cl)c(CCC#N)cc2c2c1cc([C@H]1[C@H]3C[C@H](CN(c4cc(=O)n(C)cn4)C3)N1C(=O)C1CC1)n2[C@H]1[C@H]2CN[C@@H]1C2 (atropisomer, axis not shown; (Ra)) [Example 69]	†

---

- target_of_assay: KRAS G12V (Homo sapiens, UniProt P01116, G12V)
- procedure_summary: GDP-GTP exchange assay (KRAS G12V);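 also: one dagger IC50 up to 100 nM and two daggers above 100 nM up to 1 μM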
- Format: biochemical
- test_settings: bodipy-GDP/GppNHp exchange with SOS1; 3 h incubation after GppNHp-SOS1
- Method: The inhibitor potency of the exemplified compounds was determined in a fluorescence based guanine nucleotide exchange assay, which measures the exchange of bodipy-GDP (fluorescently labeled GDP) for GppNHp (Non-hydrolyzable GTP analog) to generate the active state of KRAS in the presence of SOS1 (guanine nucleotide exchange factor). […] Fluorescence intensities were measured on a PheraStar plate reader instrument (BMG Labtech) with excitation at 485 nm and emission at 520 nm. […]
endpoint_name: G12V_exchange (KRAS_G12V exchange assay IC50)

molecule	recorded_value
Cc1nc2c(F)c(-c3cccc(Cl)c3Cl)c(CCC#N)cc2c2c1cc([C@H]1C[C@H]3C[C@H](CN3C(=O)c3ccccc3)N1C(=O)C1CC1)n2[C@H]1[C@H]2CN[C@@H]1C2 (atropisomer, axis not shown; (Ra))	†
Cc1csc(N2C[C@@H]3C[C@H](C2)N(C(=O)C2CC2)[C@H]3c2cc3c(C)nc4c(F)c(-c5cccc(Cl)c5Cl)c(CCC#N)cc4c3n2[C@H]2[C@H]3CN[C@@H]2C3)n1 (atropisomer, axis not shown; (Ra))	†
Cc1nc2c(F)c(-c3cccc(Cl)c3Cl)c(CCC#N)cc2c2c1cc([C@H]1[C@H]3C[C@H](CN(c4ccc5c(c4)OC(F)(F)O5)C3)N1C(=O)C1CC1)n2[C@H]1[C@H]2CN[C@@H]1C2 (atropisomer, axis not shown; (Ra))	†
Cc1nc2c(F)c(-c3cccc(Cl)c3Cl)c(CCC#N)cc2c2c1cc([C@H]1[C@H]3C[C@H](CN(c4ccn5nccc5c4)C3)N1C(=O)C1CC1)n2[C@H]1[C@H]2CN[C@@H]1C2 (atropisomer, axis not shown; (Ra))	†

---

- procedure_summary: Caco2 assay (permeability, Papp A-B)
- Assay type: in vitro ADME
- test_settings: human, Caco-2, absorptive direction (A-B), 50 μM test compound, 4% BSA in receiver
endpoint_name: Papp A→B at 120 min, 50 μM

Param item = Cc1nc2c(F)c(-c3cccc(Cl)c3Cl)c(CCC#N)cc2c2c1cc([C@H]1[C@H]3C[C@H](CN(c4ncc(C(F)(F)F)cn4)C3)N1C(=O)C1CC1)n2[C@H]1[C@H]2CN[C@@H]1C2 (atropisomer, axis not shown; (Ra)) [Example 41] ; retrieve measured Papp A→B at 120 min, 50 μM.
≤ 0.5 ×10⁻⁶ cm/s

Cool, now Cc1nc2c(F)c(-c3cccc(Cl)c3Cl)c(CCC#N)cc2c2c1cc([C@H]1[C@H]3C[C@H](CN(c4ccc(C#N)cc4)C3)N1C(=O)C1CC1)n2[C@H]1[C@H]2CN[C@@H]1C2 (atropisomer, axis not shown; (Ra)) [Example 4]
≤ 0.5 ×10⁻⁶ cm/s

Cool, now Cc1nc2c(F)c(-c3cccc(Cl)c3Cl)c(CCC#N)cc2c2c1cc([C@H]1[C@H]3C[C@H](CN(c4ccccc4)C3)N1C(=O)C1CC1)n2[C@H]1[C@H]2CN[C@@H]1C2 (atropisomer, axis not shown; (Ra)) [Example 1]
≤ 0.5 ×10⁻⁶ cm/s
